Tested on: phospho(Ser63)-c-jun in HK-2 cells
ASSAY SUMMARY: Cell-Based Assay for JNK Inhibitors (in-cell ELISA, phospho(Ser63)-c-jun after TNFα)
MEASUREMENT PARAMETERS: HK-2 cells (human proximal tubule cells), 60 minutes compound, then 10 ng/mL TNFα for 30 minutes
Source text: Cell-Based Assay for JNK Inhibitors The cell-based assay employed the in-cell ELISA method to determine the ability of compounds to prevent the generation of phospho(Ser63)-c-jun in HK-2 cells (human proximal tubule cells) in response to stimulation with tumor necrosis factor α (TNFα). […]
EC50 under 8 µM gets label 1, anything at or over 8 µM gets label 0.

Look over these answered cases.
{"columns": ["SMILES CODE", "SYSTEM UNDER TEST", "CLASSIFICATION"],
 "data": [
  ["O=C(NCc1cn(-c2ccccc2)c2cc(Cl)ccc2c1=O)c1ccc(NCCO)nc1", "phospho(Ser63)-c-jun in HK-2 cells", "label 0"],
  ["COC(=O)c1c(CNC(=O)c2ccc(C(N)=O)cc2)c(=O)c2ccc(C(F)(F)F)nc2n1-c1ccccc1", "phospho(Ser63)-c-jun in HK-2 cells", "label 0"],
  ["O=C(NCc1c(-c2ncco2)n(-c2ccccc2)c2cc(Cl)ccc2c1=O)c1ccc2c(c1)OCO2", "phospho(Ser63)-c-jun in HK-2 cells", "label 1"],
  ["COC(=O)c1c(CNC(=O)c2ccc(S(N)(=O)=O)cc2)c(=O)c2ccc(Cl)cc2n1-c1ccccc1", "phospho(Ser63)-c-jun in HK-2 cells", "label 1"],
  ["O=C(NCc1cn(-c2ccccc2Cl)c2cc(Cl)ccc2c1=O)c1ccc(N2CCOCC2)nc1", "phospho(Ser63)-c-jun in HK-2 cells", "label 0"]
]}

[ask] Record O=C(NCc1c(-c2ncco2)n(-c2ccccc2)c2ncccc2c1=O)c1ccn(Cc2ccccc2)c(=O)c1 : is its EC50 strictly below 8 µM?
[reply] label 1

---

Tested on: phospho(Ser63)-c-jun in HK-2 cells
ASSAY SUMMARY: Cell-Based Assay for JNK Inhibitors (in-cell ELISA, phospho(Ser63)-c-jun after TNFα)
MEASUREMENT PARAMETERS: HK-2 cells (human proximal tubule cells), 60 minutes compound, then 10 ng/mL TNFα for 30 minutes
EC50 under 20 µM gets class 1, anything at or over 20 µM gets class 0.

Look over these answered cases.
{"columns": ["SMILES CODE", "CLASSIFICATION"],
 "data": [
  ["O=C(NCc1cn(-c2ccccc2)c2cc(Cl)ccc2c1=O)c1cnc(N2CCS(=O)(=O)CC2)s1", "class 0"],
  ["COCCNc1ccc(C(=O)NCc2cn(-c3ccccc3)c3cc(Cl)ccc3c2=O)cn1", "class 0"],
  ["COC(=O)c1c(CNC(=O)c2ccc(N3CCOCC3)nc2)c(=O)c2ccc(Cl)cc2n1-c1ccccc1", "class 1"],
  ["Cn1cc(C(=O)NCc2c(-c3ncco3)n(-c3ccccc3)c3ncccc3c2=O)cn1", "class 1"],
  ["COC(=O)c1c(CNC(=O)c2ccc(-c3cnco3)cc2)c(=O)c2ccc(Cl)cc2n1-c1ccccc1", "class 1"],
  ["O=C(NCc1cn(-c2ccccc2)c2cc(Cl)ccc2c1=O)c1ccc(NC2CCOCC2)nc1", "class 0"]
]}

Now take the following compound into account.
[ask] Record CNC(=O)C1CCN(c2ccc(C(=O)NCc3cn(-c4ccccc4)c4cc(Cl)ccc4c3=O)cn2)CC1 : is its EC50 strictly below 20 µM?
[reply] class 0

---

System: phospho(Ser63)-c-jun in HK-2 cells
ASSAY SUMMARY: Cell-Based Assay for JNK Inhibitors (in-cell ELISA, phospho(Ser63)-c-jun after TNFα)
MEASUREMENT PARAMETERS: HK-2 cells (human proximal tubule cells), 60 minutes compound, then 10 ng/mL TNFα for 30 minutes
ASSAY ENDPOINT: EC50 (µM)
Numbers only, in µM.

Worked cases, EC50 given:
{"columns": ["SMILES CODE", "READOUT UNIT", "RESULT VALUE"],
 "data": [
  ["CC(C)(C)OC(=O)NC1CCN(c2ccc(C(=O)NCc3cn(-c4ccccc4)c4cc(Cl)ccc4c3=O)cn2)CC1", "µM", 100],
  ["O=C(NCc1c(-c2ncco2)n(-c2ccccc2)c2cc(Cl)ccc2c1=O)c1ccc(N2CCOCC2)nc1", "µM", 3.1],
  ["CNC(=O)c1ccc(C(=O)NCc2c(C(=O)OC)n(-c3ccccc3)c3cc(Cl)ccc3c2=O)cc1", "µM", 3.7],
  ["O=C(NCc1cn(-c2ccccc2)c2cc(Cl)ccc2c1=O)c1ccn(Cc2ccc(Cl)cc2)c(=O)c1", "µM", 12]
]}

// input: 6 compounds below; output: EC50 for each
1. COC(=O)c1c(CNC(=O)c2ccc(-c3nc(C)no3)cc2)c(=O)c2ccc(Cl)cc2n1-c1ccccc1
2. NS(=O)(=O)c1ccc(C(=O)NCc2cn(-c3ccccc3)c3cc(Cl)ccc3c2=O)cc1
3. O=C(NCc1c(-c2ncco2)n(-c2ccccc2)c2cc(Cl)ccc2c1=O)c1ccn(Cc2ccccc2)c(=O)c1
4. O=C(NCc1cn(-c2ccccc2)c2cc(Cl)ccc2c1=O)c1cnc(N2CCOCC2)s1
5. CN(C)c1ccc(C(=O)NCc2cn(-c3ccccc3)c3cc(Cl)ccc3c2=O)cn1
6. COC(=O)c1c(CNC(=O)c2cccc(Cl)c2)c(=O)c2ccc(OC)cc2n1-c1ccccc1

[reply]
1: 14; 2: 100; 3: 0.5; 4: 100; 5: 46; 6: 22

// input: 5 compounds below; output: EC50 for each
1. Cn1cc(C(=O)NCc2cn(-c3ccccc3)c3cc(Cl)ccc3c2=O)cn1
2. O=C(NCc1cn(-c2ccccc2)c2cc(Cl)ccc2c1=O)c1ccc(N2CCCC2)nc1
3. CN(C)C(=O)c1c(CNC(=O)c2ccc(N3CCC(CO)CC3)nc2)c(=O)c2ccc(Cl)cc2n1-c1ccccc1
4. COC(=O)c1c(CNC(=O)c2cccc(F)c2)c(=O)c2ccc(Cl)cc2n1-c1ccccc1
5. COC(=O)c1c(CNC(=O)c2ccc(C(N)=O)cc2)c(=O)c2ccc(Cl)cc2n1-c1ccccc1

[reply]
[42, 52, 11, 10, 3.8]

---

SYSTEM UNDER TEST: UniProtKB P45983
ASSAY SUMMARY: In Vitro JNK1 Assay (TR-FRET, phosphorylation of GST-c-Jun)
Format: biochemical
MEASUREMENT PARAMETERS: 0.2 nM active JNK1 kinase, 26.7 nM GST-c-Jun, 2 μM ATP, 30 min at room temperature
ASSAY ENDPOINT: pIC50
One number for each entry, as −log10 of the molar value.

Worked cases, pIC50 given:
{"columns": ["MOLECULE", "pIC50"],
 "data": [
  ["Cn1cnc2cc(C(=O)NCc3cn(-c4ccccc4)c4cc(Cl)ccc4c3=O)cnc21 [Example I-45]", 6.96],
  ["O=C(NCc1cn(-c2ccccc2)c2cc(Cl)ccc2c1=O)c1cnc(N2CCOCC2)s1 [Example I-96]", 7.26],
  ["COC(=O)c1c(CNC(=O)c2ccc(-c3ccn[nH]3)cc2)c(=O)c2ccc(C(F)(F)F)nc2n1-c1ccccc1 [Example I-156]", 7.52]
]}

[ask] State the recorded pIC50 for this entry: CN1CCCN(c2ccc(C(=O)NCc3cn(-c4ccccc4)c4cc(Cl)ccc4c3=O)cn2)CC1 [Example I-82]
[reply] 7.15

---

For each entry below, report its log10(IC50) value.
SYSTEM UNDER TEST: JNK1 (Homo sapiens (Human))
Sequence (P45983 whole entry): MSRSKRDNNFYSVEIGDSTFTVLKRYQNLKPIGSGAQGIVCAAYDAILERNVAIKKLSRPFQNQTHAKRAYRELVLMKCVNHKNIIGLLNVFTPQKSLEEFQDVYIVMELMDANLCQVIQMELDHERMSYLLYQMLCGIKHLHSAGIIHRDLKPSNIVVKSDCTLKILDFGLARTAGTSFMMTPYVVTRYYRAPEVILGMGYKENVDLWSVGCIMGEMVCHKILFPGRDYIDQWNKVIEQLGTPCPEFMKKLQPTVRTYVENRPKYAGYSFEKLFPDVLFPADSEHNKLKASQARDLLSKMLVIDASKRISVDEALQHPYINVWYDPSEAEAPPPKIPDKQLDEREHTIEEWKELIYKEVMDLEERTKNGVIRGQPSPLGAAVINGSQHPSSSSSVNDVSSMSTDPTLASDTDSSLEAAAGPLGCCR
ASSAY SUMMARY: In Vitro JNK1 Assay (TR-FRET, phosphorylation of GST-c-Jun)
Type: biochemical
MEASUREMENT PARAMETERS: 0.2 nM active JNK1 kinase, 26.7 nM GST-c-Jun, 2 μM ATP, 30 min at room temperature
Structures can show the parent of a compound that is named as a salt.
Log10 applied to IC50; unit prior to transform: nM.

Worked cases, log10(IC50) given:
{"columns": ["COMPOUND", "SYSTEM UNDER TEST", "log10(IC50)"],
 "data": [
  ["COC(=O)c1c(CNC(=O)c2cccc(OC)c2)c(=O)c2ccc(OC)cc2n1-c1ccccc1 [Example I-161]", "JNK1 (Homo sapiens (Human))", 1.51],
  ["O=C(NCc1cn(-c2ccccc2)c2cc(Cl)ccc2c1=O)c1ccc2nc[nH]c2c1 [Example I-33]", "JNK1 (Homo sapiens (Human))", 1.61],
  ["NC1CCN(c2ccc(C(=O)NCc3cn(-c4ccccc4)c4cc(Cl)ccc4c3=O)cn2)CC1 [Example I-90, trifluoroacetate]", "JNK1 (Homo sapiens (Human))", 2.11],
  ["COC(=O)[C@H]1CC[C@H](NC(=O)NCc2cn(-c3ccccc3)c3cc(Cl)ccc3c2=O)CC1 [Example I-189]", "JNK1 (Homo sapiens (Human))", 3.30],
  ["COC(=O)c1c(CNC(=O)c2ccc(C(N)=O)cc2)c(=O)c2ccc(C(F)(F)F)nc2n1-c1ccccc1 [Example I-155]", "JNK1 (Homo sapiens (Human))", 1.43]
]}

// input: 5 compounds below; output: log10(IC50) for each
1. CN(C)C(=O)c1c(CNC(=O)c2cnc(N3CCOCC3)s2)c(=O)c2ccc(Cl)cc2n1-c1ccccc1 [Example I-14]
2. COC(=O)c1c(CNC(=O)c2ccc(C(N)=O)cc2)c(=O)c2ccc(Cl)cc2n1-c1ccccc1 [Example I-117]
3. COC(=O)c1c(CNC(=O)c2cccc(Cl)c2)c(=O)c2ccc(Cl)cc2n1-c1ccccc1 [Example I-142]
4. O=C(NCc1cn(-c2ccccc2)c2cc(Cl)ccc2c1=O)N1CCC(c2ccccc2)CC1 [Example I-190]
5. O=C(NCc1cn(-c2ccccc2)c2cc(Cl)ccc2c1=O)c1cnc(N2CCS(=O)(=O)CC2)s1 [Example I-97]

[reply]
1. 1.56
2. 1.00
3. 1.23
4. 3.32
5. 1.84
